target: OR11A1 (Homo sapiens, UniProt Q9GZK7); construct: expressed in transfected cells; host or cells: HEK293T-RTP1A1/RTP2; test: Luciferase reporter concentration-response analysis on OR11A1; type: cell-based; conditions: concentration-response analysis, luciferase reporter; values given as negative (log) numbers; Non Active = no activation after testing; read-out: calculated EC50, OR11A1 (converted)
Sequence (Q9GZK7 whole entry): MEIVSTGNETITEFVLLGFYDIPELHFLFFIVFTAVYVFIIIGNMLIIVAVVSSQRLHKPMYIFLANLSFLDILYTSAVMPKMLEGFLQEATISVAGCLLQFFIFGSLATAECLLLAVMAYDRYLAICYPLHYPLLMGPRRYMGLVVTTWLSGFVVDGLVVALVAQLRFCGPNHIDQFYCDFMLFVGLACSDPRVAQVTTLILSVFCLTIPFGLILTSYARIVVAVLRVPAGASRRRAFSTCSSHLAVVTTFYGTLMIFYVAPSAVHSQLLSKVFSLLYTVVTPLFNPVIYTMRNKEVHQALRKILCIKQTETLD
Response field label: string, one of y (EC50 strictly below 9 µM) or n.

compound="CC(=O)c1cc2c(cc1C)C(C)(C)C(C)CC2(C)C (centres unmarked) [Tonalide ®]" category_label=n
compound="CC(=O)c1cc2c(cc1C)C(C)(C)C(C)C2C(C)C (centres unmarked) [traseolide]" category_label=y
compound="CC1C(C)(C)C2=C(C(=O)CCC2)C1(C)C (centres unmarked)" category_label=n
compound="CC(=O)c1cc2c(cc1C)C(C)(C)C(C)C2(C)C (centres unmarked) [Phantolide]" category_label=y
